applied.conditions: [M+H]+; instrument: TW; calibrated with polyalanine and drug standards

>  <compound>
CC(C)(O/N=C(\C(=O)N[C@@H]1C(=O)N2C(C(=O)[O-])=C(C[n+]3ccccc3)CS[C@H]12)c1csc(N)n1)C(=O)O

>  <collision cross section (N2) (Å²)>
218.2

$$$$
>  <compound>
O=C(CCCN1CCC(O)(c2ccc(Br)cc2)CC1)c1ccc(F)cc1

>  <collision cross section (N2) (Å²)>
194.9

$$$$
>  <compound>
CC(C)NCC(O)COc1cccc2ccccc12 (stereo unspecified)

>  <collision cross section (N2) (Å²)>
161.5

$$$$
>  <compound>
CC1COc2c(N3CCN(C)CC3)c(F)cc3c(=O)c(C(=O)O)cn1c23 (stereo unspecified)

>  <collision cross section (N2) (Å²)>
188.5

$$$$
>  <compound>
Cc1ccccc1N1C(=O)c2cc(S(N)(=O)=O)c(Cl)cc2NC1C (stereo unspecified)

>  <collision cross section (N2) (Å²)>
181.2

$$$$
>  <compound>
CC1Cc2ccccc2N1NC(=O)c1ccc(Cl)c(S(N)(=O)=O)c1 (stereo unspecified) [INDAPAMIDE]

>  <collision cross section (N2) (Å²)>
184.6

$$$$
>  <compound>
CC[C@@]1(O)C[C@H](O[C@H]2C[C@H](N(C)C)[C@H](O)[C@H](C)O2)c2c(cc3c(c2O)C(=O)c2c(O)ccc(O)c2C3=O)[C@H]1C(=O)OC

>  <collision cross section (N2) (Å²)>
233.9

$$$$
>  <compound>
Nc1nc(N)c2nc(CNc3ccc(C(=O)N[C@@H](CCC(=O)O)C(=O)O)cc3)cnc2n1

>  <collision cross section (N2) (Å²)>
204.4

$$$$
>  <compound>
CCN(CC)CCNC(=O)c1cc(Br)c(N)cc1OC [BROMOPRIDE]

>  <collision cross section (N2) (Å²)>
173.6

$$$$
>  <compound>
NC(=O)C1(N2CCCCC2)CCN(CCCC(=O)c2ccc(F)cc2)CC1

>  <collision cross section (N2) (Å²)>
192.6

$$$$
>  <compound>
CC(C)(C)NCC(O)COc1cccc2c1C[C@H](O)[C@H](O)C2 (stereo partly specified)

>  <collision cross section (N2) (Å²)>
171.8

$$$$
>  <compound>
Cn1c(=O)c2c(ncn2CC(O)CO)n(C)c1=O (stereo unspecified)

>  <collision cross section (N2) (Å²)>
152.6

$$$$
>  <compound>
CC(=O)Oc1ccc(C(c2ccc(OC(C)=O)cc2)c2ccccn2)cc1

>  <collision cross section (N2) (Å²)>
193.3

$$$$
>  <compound>
O=C1C(Cl)=C(Cl)C(=O)C(Cl)=C1Cl

>  <collision cross section (N2) (Å²)>
148.9

$$$$
>  <compound>
CCCOc1ccc2nc(NC(=O)OC)[nH]c2c1

>  <collision cross section (N2) (Å²)>
157.5

$$$$
>  <compound>
CC(=O)O[C@@H]1C[C@H]2C(C)(C)C(=O)C=C[C@]2(C)[C@H]2CC[C@]3(C)C(=CC(=O)O[C@H]3c3ccoc3)[C@@]21C

>  <collision cross section (N2) (Å²)>
206.3

$$$$

Where these numbers come from: the C3SDB collision cross section collection
